System: HOP-62
Assay Comment: NCI 60-cell line one-dose antiproliferative screen (SRB)
Format: cell-based
Condition Notes: Homo sapiens, read-out: growth inhibition % (GI%)
Metric: inhibition at 10 µM (%)

INSERT INTO measurements (smiles_code, unit_name, relation, reported_value) VALUES
  ('Cc1ccc(C(=O)c2ccc(CC(=O)NNC(=O)Nc3c(C)cccc3Cl)n2C)cc1', '%', '<', 10),
  ('Cc1ccc(C(=O)c2ccc(CC(=O)NN=C3C(=O)Nc4ccc(OC(F)(F)F)cc43)n2C)cc1', '%', '=', 11.1),
  ('Cc1ccc(C(=O)c2ccc(CC(=O)NNC(=O)Nc3c(Cl)cccc3Cl)n2C)cc1', '%', '=', 11.4),
  ('Cc1ccc(C(=O)c2ccc(CC(=O)NN=Cc3cccc(O)c3O)n2C)cc1', '%', '=', 50.1),
  ('Cc1ccc(C(=O)c2ccc(CC(=O)NN3C(=O)C=CC3=O)n2C)cc1', '%', '=', 10.4),
  ('Cc1ccc(C(=O)c2ccc(CC(=O)NN=Cc3ccccc3O)n2C)cc1', '%', '=', 24),
  ('Cc1ccc(C(=O)c2ccc(CC(=O)NN3C(=O)CCC3=O)n2C)cc1', '%', '=', 15.5),
  ('Cc1ccc(C(=O)c2ccc(CC(=O)NN=C3C(=O)Nc4ccccc43)n2C)cc1', '%', '<', 10);

====

Here the recorded inhibition at 10 µM is given for each entry.
Tested on: CCRF-CEM
Assay Comment: NCI 60-cell line one-dose antiproliferative screen (SRB)
Assay type: cell-based
Condition Notes: Homo sapiens, read-out: growth inhibition % (GI%)
Metric: inhibition at 10 µM (%)

INSERT INTO results (smiles_code, relation, reported_value) VALUES
  ('Cc1ccc(C(=O)c2ccc(CC(=O)NN3C(=O)C=CC3=O)n2C)cc1', '<', 10),
  ('Cc1ccc(C(=O)c2ccc(CC(=O)NN3C(=O)c4ccccc4C3=O)n2C)cc1', '<', 10),
  ('Cc1ccc(C(=O)c2ccc(CC(=O)NN3C(=O)CCC3=O)n2C)cc1', '<', 10),
  ('Cc1ccc(C(=O)c2ccc(CC(=O)NN=Cc3ccc(O)cc3O)n2C)cc1', '=', 83.2),
  ('Cc1ccc(C(=O)c2ccc(CC(=O)NN=Cc3c[nH]c4ccccc34)n2C)cc1', '=', 24.6),
  ('Cc1ccc(C(=O)c2ccc(CC(=O)NN=Cc3cccc(O)c3O)n2C)cc1', '=', 86.9),
  ('Cc1ccc(C(=O)c2ccc(CC(=O)NNC(=O)Nc3ccc(Cl)c(C(F)(F)F)c3)n2C)cc1', '<', 10),
  ('Cc1ccc(C(=O)c2ccc(CC(=O)NN=Cc3ccccc3O)n2C)cc1', '=', 45.9);

====

Test system: A549/ATCC
Assay Comment: NCI 60-cell line one-dose antiproliferative screen (SRB)
Type: cell-based
Condition Notes: Homo sapiens, read-out: growth inhibition % (GI%)
So basically: inhibition at 10 µM at 20% or higher? That is 1. Lower than 20%? That is 0.

INSERT INTO results (molecule, group_label) VALUES
  ('Cc1ccc(C(=O)c2ccc(CC(=O)NN=C3C(=O)Nc4ccc(Br)cc43)n2C)cc1 [Compound 6b]', 0),
  ('Cc1ccc(C(=O)c2ccc(CC(=O)NN3C(=O)c4ccccc4C3=O)n2C)cc1 [Compound 7c]', 0),
  ('Cc1ccc(C(=O)c2ccc(CC(=O)NN=Cc3cccc(O)c3O)n2C)cc1 [Compound 5b]', 1),
  ('Cc1ccc(C(=O)c2ccc(CC(=O)NN=Cc3ccccc3O)n2C)cc1 [Compound 5a]', 0),
  ('Cc1ccc(C(=O)c2ccc(CC(=O)NN=Cc3cc4ccccc4[nH]3)n2C)cc1 [Compound 5e]', 0),
  ('Cc1ccc(C(=O)c2ccc(CC(=O)NNC(=O)Nc3ccc(Cl)c(C(F)(F)F)c3)n2C)cc1 [Compound 8c]', 1),
  ('Cc1ccc(C(=O)c2ccc(CC(=O)NN=Cc3c[nH]c4ccccc34)n2C)cc1 [Compound 5f]', 0),
  ('Cc1ccc(C(=O)c2ccc(CC(=O)NN3C(=O)C=CC3=O)n2C)cc1 [Compound 7b]', 0),
  ('Cc1ccc(C(=O)c2ccc(CC(=O)NN3C(=O)CCC3=O)n2C)cc1 [Compound 7a]', 0),
  ('Cc1ccc(C(=O)c2ccc(CC(=O)NNC(=O)Nc3c(C)cccc3Cl)n2C)cc1 [Compound 8b]', 0),
  ('Cc1ccc(C(=O)c2ccc(CC(=O)NN=Cc3ccc4c(c3)OCO4)n2C)cc1 [Compound 5d]', 0),
  ('Cc1ccc(C(=O)c2ccc(CC(=O)NNC(=O)Nc3c(Cl)cccc3Cl)n2C)cc1 [Compound 8a]', 0),
  ('Cc1ccc(C(=O)c2ccc(CC(=O)NN=Cc3ccc(O)cc3O)n2C)cc1 [Compound 5c]', 1);

====

System: MDA-MB-435
Assay Comment: NCI 60-cell line one-dose antiproliferative screen (SRB)
Type: cell-based
Condition Notes: Homo sapiens, read-out: growth inhibition % (GI%)
Metric: inhibition at 10 µM

INSERT INTO assay_data (compound, metric, reported_value) VALUES
  ('Cc1ccc(C(=O)c2ccc(CC(=O)NN=Cc3ccc4c(c3)OCO4)n2C)cc1 [Compound 5d]', 'inhibition at 10 µM', '< 10%'),
  ('Cc1ccc(C(=O)c2ccc(CC(=O)NN=Cc3ccc(O)cc3O)n2C)cc1 [Compound 5c]', 'inhibition at 10 µM', '36.9%'),
  ('Cc1ccc(C(=O)c2ccc(CC(=O)NN=C3C(=O)Nc4ccccc43)n2C)cc1 [Compound 6a]', 'inhibition at 10 µM', '< 10%'),
  ('Cc1ccc(C(=O)c2ccc(CC(=O)NN=C3C(=O)Nc4ccc(OC(F)(F)F)cc43)n2C)cc1 [Compound 6c]', 'inhibition at 10 µM', '< 10%');

====

Metric: melting point

INSERT INTO results (compound, reported_value) VALUES
  ('Cc1ccc(C(=O)c2ccc(CC(=O)NNC(=O)Nc3c(C)cccc3Cl)n2C)cc1 [Compound 8b]', '240 to 242 °C'),
  ('Cc1ccc(C(=O)c2ccc(CC(=O)NN=Cc3cc4ccccc4[nH]3)n2C)cc1 [Compound 5e]', '198 to 200 °C'),
  ('Cc1ccc(C(=O)c2ccc(CC(=O)NN3C(=O)C=CC3=O)n2C)cc1 [Compound 7b]', '193 to 195 °C'),
  ('Cc1ccc(C(=O)c2ccc(CC(=O)NN=C3C(=O)Nc4ccccc43)n2C)cc1 [Compound 6a]', '193 to 195 °C'),
  ('Cc1ccc(C(=O)c2ccc(CC(=O)NN=C3C(=O)Nc4ccc(Br)cc43)n2C)cc1 [Compound 6b]', '195 to 197 °C'),
  ('Cc1ccc(C(=O)c2ccc(CC(=O)NNC(=O)Nc3c(Cl)cccc3Cl)n2C)cc1 [Compound 8a]', '245 to 247 °C'),
  ('Cc1ccc(C(=O)c2ccc(CC(=O)NN=Cc3c[nH]c4ccccc34)n2C)cc1 [Compound 5f]', '168 to 170 °C'),
  ('Cc1ccc(C(=O)c2ccc(CC(=O)NNC(=O)Nc3ccc(Cl)c(C(F)(F)F)c3)n2C)cc1 [Compound 8c]', '171 to 173 °C'),
  ('Cc1ccc(C(=O)c2ccc(CC(=O)NN=C3C(=O)Nc4ccc(OC(F)(F)F)cc43)n2C)cc1 [Compound 6c]', '157 to 159 °C'),
  ('Cc1ccc(C(=O)c2ccc(CC(=O)NN=Cc3ccccc3O)n2C)cc1 [Compound 5a]', '222 to 224 °C'),
  ('Cc1ccc(C(=O)c2ccc(CC(=O)NN3C(=O)c4ccccc4C3=O)n2C)cc1 [Compound 7c]', '> 300 °C'),
  ('Cc1ccc(C(=O)c2ccc(CC(=O)NN3C(=O)CCC3=O)n2C)cc1 [Compound 7a]', '> 300 °C');

====

Here the recorded inhibition at 10 µM is given for each entry.
Test system: PC-3
Assay Comment: NCI 60-cell line one-dose antiproliferative screen (SRB)
Assay type: cell-based
Condition Notes: Homo sapiens, read-out: growth inhibition % (GI%)
Metric: inhibition at 10 µM (%)

INSERT INTO assay_data (smiles_code, unit_name, relation, reported_value) VALUES
  ('Cc1ccc(C(=O)c2ccc(CC(=O)NN=C3C(=O)Nc4ccc(Br)cc43)n2C)cc1', '%', '<', 10),
  ('Cc1ccc(C(=O)c2ccc(CC(=O)NN=C3C(=O)Nc4ccc(OC(F)(F)F)cc43)n2C)cc1', '%', '<', 10),
  ('Cc1ccc(C(=O)c2ccc(CC(=O)NN=Cc3ccccc3O)n2C)cc1', '%', '=', 13.2),
  ('Cc1ccc(C(=O)c2ccc(CC(=O)NN=Cc3cccc(O)c3O)n2C)cc1', '%', '=', 40.8),
  ('Cc1ccc(C(=O)c2ccc(CC(=O)NNC(=O)Nc3c(Cl)cccc3Cl)n2C)cc1', '%', '=', 10.5),
  ('Cc1ccc(C(=O)c2ccc(CC(=O)NN=C3C(=O)Nc4ccccc43)n2C)cc1', '%', '<', 10),
  ('Cc1ccc(C(=O)c2ccc(CC(=O)NNC(=O)Nc3c(C)cccc3Cl)n2C)cc1', '%', '<', 10),
  ('Cc1ccc(C(=O)c2ccc(CC(=O)NN3C(=O)C=CC3=O)n2C)cc1', '%', '=', 10.7),
  ('Cc1ccc(C(=O)c2ccc(CC(=O)NN3C(=O)c4ccccc4C3=O)n2C)cc1', '%', '<', 10),
  ('Cc1ccc(C(=O)c2ccc(CC(=O)NN3C(=O)CCC3=O)n2C)cc1', '%', '=', 10);
